EXPERIMENTAL_TARGET: T1, Caspase-2 (UniProt P42575 170-452, limits assumed)
T1 sequence (looked up): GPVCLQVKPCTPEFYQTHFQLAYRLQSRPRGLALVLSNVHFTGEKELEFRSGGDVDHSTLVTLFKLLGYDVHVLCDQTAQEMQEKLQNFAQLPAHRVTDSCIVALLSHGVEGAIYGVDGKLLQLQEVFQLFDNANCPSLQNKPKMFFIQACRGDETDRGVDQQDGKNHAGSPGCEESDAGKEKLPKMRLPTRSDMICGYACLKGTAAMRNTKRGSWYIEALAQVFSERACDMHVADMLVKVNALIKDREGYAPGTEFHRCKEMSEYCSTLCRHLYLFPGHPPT
EXPERIMENTAL_PROTOCOL: cell-based or functional assay
Numbered stars: 1 amine (or outer) side, 2 acyl side, 3 side chain; on linkers, the order of the positions; unused ones are H or OH. Square brackets hold non-standard residues; d marks the D form. * marks the point of attachment. AAsp = aza-Asp, O=C(N(CC(=O)[*:3])N[*:1])[*:2]; CH═CH‑COOEt = CCOC(=O)/C=C/*; Cbz = O=C(OCc1ccccc1)*
EXPERIMENTAL_READOUT: k2 (M⁻¹ s⁻¹)

Consider the reported k2 for these binders:
binder="Cbz-DEV[AAsp]-{CH═CH‑COPh} [Cbz-Asp-Glu-Val-AAsp-CH═CH-COPh]" experimental_readout=k2 value_reported=165
binder="Cbz-LET[AAsp]-{CH═CH‑CONHCH2‑4‑F‑Ph} [Cbz-Leu-Glu-Thr-AAsp-CH═CH-CONHCH2-4-F-Ph]" experimental_readout=k2 value_reported=70
binder="Cbz-LET[AAsp]-{CH═CH‑CON(CH3)CH2‑1‑Napth} [Cbz-Leu-Glu-Thr-AAsp-CH═CH-CON(CH3)CH2-1-Napth]" experimental_readout=k2 value_reported=290

I. Cbz-Glu-Val-[AAsp]-{CH═CH‑COOEt} (SMILES CCOC(=O)/C=C/C(=O)N(CC(=O)O)NC(=O)[C@@H](NC(=O)[C@H](CCC(=O)O)NC(=O)OCc1ccccc1)C(C)C) [Cbz-Glu-Val-AAsp-CH═CH-COOEt]
II. Cbz-DEV[AAsp]-{CH═CH‑CO‑tetrahydroquinoline} [Cbz-Asp-Glu-Val-AAsp-CH═CH-CON-tetrahydroquinoline]
III. Cbz-DEV[AAsp]-{cis‑CH═CH‑COOEt} [Cbz-Asp-Glu-Val-AAsp-CH═CH-COOEt (cis)]
Query: Arrange the 3 entries by k2 so the values rise. Labels, ranked as asked.
Response: I, II, III
(I: 90 M⁻¹ s⁻¹, II: 390 M⁻¹ s⁻¹, III: 26200 M⁻¹ s⁻¹)
